# PROCEDURE SUMMARY: Metabolic stability in human liver microsomes
# Format: in vitro ADME
Rule: Satisfied for Metabolic Stability Study H = human not less than 50 µL/min/mg, Not satisfied for anything less.

Illustrative cases are given below, each with its answer.
COc1cc(S(=O)(=O)Cc2ccc3c(c2)CNC3)ccc1NC(=O)NC(C)c1c(F)cccc1F (centres unmarked) :: Not satisfied
CC(NC(=O)Nc1ccc(S(=O)(=O)Nc2ccc3c(c2)CCN(C)C3)cc1)c1cccc(F)c1F (centres unmarked) :: Satisfied
COc1cc(S(=O)(=O)Cc2ccc3c(c2)CNC3)ccc1NC(=O)N(C)C(C)c1ccccc1 (centres unmarked) :: Satisfied
C[C@H](NC(=O)Nc1ccc(S(=O)(=O)Cc2ccc3c(c2)CCN(C)CC3)cc1)c1ccccc1 :: Satisfied
C[C@H](NC(=O)Nc1ccc(S(=O)(=O)Cc2ccc3c(c2)CN(C)CC3)cc1)c1ccccc1 :: Satisfied
CC(NC(=O)N(O)c1ccc(S(=O)(=O)Nc2ccc3c(c2)CNC3)cc1)c1cccc2ccccc12 (centres unmarked) :: Not satisfied

### Prompt Could you please find out whether CC(NC(=O)Nc1ccc(S(=O)(=O)Cc2ccc3c(c2)CN(C)C3)cc1)c1c(F)cccc1F (centres unmarked) has Metabolic Stability Study H = human that meets 50 µL/min/mg or exceeds it?
### Response Satisfied

### Prompt Dear colleague, could you confirm whether CC(NC(=O)Nc1ccc(S(=O)(=O)Cc2ccc3c(c2)CN(C)C3)cc1)c1ccccc1 (centres unmarked) has Metabolic Stability Study H = human at or above 50 µL/min/mg?
### Response Satisfied

====

# PROCEDURE SUMMARY: Metabolic stability in dog liver microsomes
# Assay type: in vitro ADME
Kindly apply the following: rule met if Metabolic Stability Study D = dog is less than 20 µL/min/mg, rule not met in every other case.

Past entries and their recorded results:
C[C@@H](NC(=O)Nc1ccc(S(=O)(=O)Cc2ccc3c(c2)CNC3)cc1)c1ccccc1 :: rule met
CC(c1ccccc1)N(C)C(=O)Nc1ccc(S(=O)(=O)Cc2ccc3c(c2)CN(C)C3)cc1 (centres unmarked) :: rule not met
CC(C)(N)Cc1ccc(CS(=O)(=O)c2ccc(NC(=O)NCc3cccc(Cl)c3Cl)cc2)cc1 :: rule met
C[C@H](NC(=O)Nc1ccc(S(=O)(=O)Cc2ccc3c(c2)CNC3)cc1)c1ccccc1 :: rule met
CN(C)C(C)(C)Cc1ccc(NS(=O)(=O)c2ccc(NC(=O)NCc3cccc(Cl)c3Cl)cc2)cc1 :: rule not met
CC(NC(=O)Nc1ccc(S(=O)(=O)Cc2ccc3c(c2)CC(C)N(C)C3)cc1)c1cccc(Cl)c1Cl (centres unmarked) :: rule not met
CNC(C)(C)Cc1ccc(NS(=O)(=O)c2ccc(NC(=O)N[C@@H](C)c3ccc(-c4cnccn4)c(Cl)c3Cl)cc2)cc1 :: rule not met

Please look at the following compound next.
### Prompt Does this compound meet the criterion Metabolic Stability Study D = dog < 20 µL/min/mg? COc1cc(S(=O)(=O)Cc2ccc3c(c2)CCNC3)ccc1NC(=O)NC(C)c1cccc(Cl)c1Cl.Cl (centres unmarked)
### Response rule met

====

The reader will find reported fraction unbound values listed item by item below.
# PROCEDURE SUMMARY: Plasma protein binding (PPB), human
# Type: in vitro ADME
# ASSAY CONTEXT: read-out: PPB (H) (converted)
Respond with the number and no other words.

CC(NC(=O)Nc1ccc(S(=O)(=O)Cc2ccc3c(c2)CNC3)cc1)c1ccc(F)cc1 (centres unmarked) :: 0.099

GET /value?item= CC(NC(=O)Nc1ccc(S(=O)(=O)Cc2ccc3c(c2)CNC3)cc1)c1ccccc1Cl.Cl (centres unmarked) &field=fraction unbound returns 0.045

// sample COc1cc(S(=O)(=O)Cc2ccc3c(c2)CNC3)ccc1NC(=O)NC(C)c1cccc2ccccc12.O=C(O)C(F)(F)F (centres unmarked) , its fraction unbound was 0.0041

fraction unbound reported for this compound COc1cc(S(=O)(=O)Cc2ccc3c(c2)CC(C)NC3)ccc1NC(=O)NC(C)c1ccccc1 (centres unmarked) : 0.0245

So, CC(c1ccccc1)N(C)C(=O)Nc1ccc(S(=O)(=O)Cc2ccc3c(c2)CN(C)C3)cc1 (centres unmarked) ? Its fraction unbound was 0.0906

The value of fraction unbound measured for the compound COc1cc(S(=O)(=O)Cc2ccc3c(c2)CCNC3)ccc1NC(=O)NC(C)c1cccc(Cl)c1Cl.Cl (centres unmarked) turned out to be 0.0015

Note to self: fraction unbound recorded for COc1cc(S(=O)(=O)Cc2ccc3c(c2)CNC3)ccc1NC(=O)NC(C)c1cccc(Cl)c1Cl.Cl (centres unmarked) was 0.0037

Short answer for COc1ccc([C@@H](C)NC(=O)Nc2ccc(S(=O)(=O)Cc3ccc4c(c3)CCN(C)C4)cc2)c(Cl)c1Cl : fraction unbound was 0.0015

====

# PROCEDURE SUMMARY: Metabolic stability in human liver microsomes
# Format: in vitro ADME
READOUT TYPE: Metabolic Stability Study H = human

COC(=O)c1cc(S(=O)(=O)Cc2ccc3c(c2)CNC3)ccc1NC(=O)NC(C)c1ccccc1 (centres unmarked) [H1459] :: 53.7 µL/min/mg

The recorded Metabolic Stability Study H = human for entry CN1Cc2ccc(CS(=O)(=O)c3ccc(NC(=O)NCc4ccccc4)cc3)cc2C1 [H1193] equals 49.8 µL/min/mg

The reported value for CN(C)C(C)(C)Cc1ccc(NS(=O)(=O)c2ccc(NC(=O)NCc3cccc(Cl)c3Cl)cc2)cc1 [H0995] in terms of Metabolic Stability Study H = human is 54.5 µL/min/mg

====

# PROCEDURE SUMMARY: Metabolic stability in human liver microsomes
# Format: in vitro ADME
# Method: Metabolic Stability Study The metabolic stability of compounds in human, dog, rat and mouse liver microsomes was performed according the experimental conditions reported below: • a) Prepare the following 5 stock solutions: • 1. […]
Measured Metabolic Stability Study H = human, listed per entry for reference.
Quick reminder: number only, in µL/min/mg, skip the unit.

Answered cases to consult:
COc1cc(S(=O)(=O)Cc2ccc3c(c2)CNC3)ccc1NC(=O)NC(C)c1cccc2ccccc12.O=C(O)C(F)(F)F (stereo not shown) [H1419] :: 33.1
COc1cc(NC(=O)NC(C)c2ccccc2)ccc1S(=O)(=O)Cc1ccc2c(c1)CNC2 (stereo not shown) [H1461] :: 22.0
CC(NC(=O)Nc1ccc(S(=O)(=O)Cc2ccc3c(c2)CN(C)C3)cc1)c1ccccc1Cl (stereo not shown) [H1267] :: 109.8

Metabolic Stability Study H = human for COc1cc(S(=O)(=O)Cc2ccc3c(c2)CNC3)ccc1NC(=O)NC(C)c1cccc(Cl)c1Cl.Cl (stereo not shown) [H1421] is 13.2

Notebook: CC(NC(=O)Nc1ccc(S(=O)(=O)Nc2ccc3c(c2)CNC3)cc1)c1ccccc1.Cl (stereo not shown) [H1156] , Metabolic Stability Study H = human read as 18.1

// Metabolic Stability Study H = human lookup, molecule = CC(NC(=O)Nc1ccc(S(=O)(=O)Nc2ccc3c(c2)CCN(C)C3)cc1)c1ccccc1Cl (stereo not shown) [H1334] , result: 109.8

Notebook: CC(NC(=O)Nc1ccc(S(=O)(=O)Nc2ccc3c(c2)CCN(C)C3)cc1)c1ccccc1F (stereo not shown) [H1347] , Metabolic Stability Study H = human read as 59.9

Metabolic Stability Study H = human for Cc1oc(=O)oc1CN1CCc2cc(CS(=O)(=O)c3ccc(NC(=O)N[C@@H](C)c4cccc(Cl)c4Cl)cc3)ccc2C1 [H1067] is 326.2

The recorded Metabolic Stability Study H = human for C[C@@H](NC(=O)Nc1ccc(S(=O)(=O)Cc2cc(F)c3c(c2)CN(C)C3)cc1)c1ccccc1 [H1355] is 153.5

Reported Metabolic Stability Study H = human ( CC(NC(=O)Nc1ccc(S(=O)(=O)Cc2ccc3c(c2)CNC3)cc1)c1cccc2ccccc12.Cl (stereo not shown) [H1149] ) = 21.1

Noted for CC(NC(=O)Nc1ccc(S(=O)(=O)Cc2ccc3c(c2)CCN(C)C3)cc1)c1ccccc1F (stereo not shown) [H1342] : its Metabolic Stability Study H = human reads 80.1

====

# TESTED ON: recombinant human ghrelin receptor (HEK293/GRLN) (Homo sapiens, UniProt Q92847)
# Construct: expressed in transfected cells
# Sequence (Q92847 whole entry): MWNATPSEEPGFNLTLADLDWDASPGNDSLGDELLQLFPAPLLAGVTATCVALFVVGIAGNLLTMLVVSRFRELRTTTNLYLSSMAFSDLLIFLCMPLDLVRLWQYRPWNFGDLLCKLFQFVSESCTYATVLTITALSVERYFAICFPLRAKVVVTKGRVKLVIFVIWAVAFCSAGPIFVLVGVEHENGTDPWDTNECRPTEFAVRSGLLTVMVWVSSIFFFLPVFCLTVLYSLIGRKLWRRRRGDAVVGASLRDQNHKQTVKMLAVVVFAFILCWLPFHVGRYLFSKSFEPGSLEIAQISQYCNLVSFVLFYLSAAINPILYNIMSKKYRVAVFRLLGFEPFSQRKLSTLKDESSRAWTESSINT
# PROCEDURE SUMMARY: Ghrelin inverse agonist potency (EC50) with IP-1 (IP-One HTRF) assay
# Format: cell-based
# ASSAY CONTEXT: ghrelin inverse agonist potency, IP-1 assay; read-out: Activity EC50
pEC50 values by entry
// returns pEC50 (minus log10 of molar concentration), number only

Recorded result, C[C@@H](NC(=O)Nc1ccc(S(=O)(=O)Cc2ccc3c(c2)C(F)CNC3)cc1)c1ccccc1 (some centres unmarked) [H1540] , pEC50: 6.69

Kindly note the recorded pEC50 for COc1cc(NC(=O)N(O)C(C)c2ccccc2F)ccc1S(=O)(=O)Cc1ccc2c(c1)CNC2 (centres unmarked) [H1510] , which is 8.46

Cited source for all entries: patent US10501479B2
